System: sodium channel
Test: Guanidine influx assay (14C-guanidine radiotracer flux) in a known cell line that expresses a sodium channel
Format: cell-based, human or rat
pIC50: −log10 of the molar value.
measured quantity: pIC50

Recorded results for 2 compounds are shown here.
{"compound": "CCCCCN1C(=O)C2(COc3cc(S(=O)(=O)c4ccccc4)ccc32)c2ccccc21 (stereo not drawn)", "pIC50": "6.00 to 7.00"}
{"compound": "NCCCN1C(=O)C2(COc3cc4c(cc32)OCO4)c2ccccc21 (stereo not drawn)", "pIC50": "< 6.00"}

Next compound, pIC50 to be filled in.
Exercise: API: value(readout=pIC50, system=sodium channel) for record O=C1N(C(c2ccccc2)c2ccccc2)c2ccccc2C12COc1ccc(-c3cccnc3)cc12 (stereo not drawn)
Key: < 6.00

----------
measured quantity: melting point

// solved cases for melting point follow
{"molecule": "CCCCCN1C(=O)C2(COc3ccc(-c4cncnc4)cc32)c2ccccc21 (centres unmarked)", "melting point": "115 to 117 °C"}
{"molecule": "O=C(CN1C(=O)C2(COc3cc4c(cc32)CCO4)c2cc(Cl)ccc21)Nc1ccccc1F (centres unmarked)", "melting point": "229 to 230 °C"}

Would you mind giving melting point for every molecule in the list below?
1. Cc1cccc2c1C1(COc3cc4c(cc31)OCO4)C(=O)N2Cc1ccc(C(F)(F)F)o1 (centres unmarked)
2. CCCCCN1C(=O)C2(COc3cc(-c4ccncc4)ccc32)c2ccccc21 (centres unmarked)
3. Cl.O=C1N(Cc2ccc(N3CCCC3)nc2)c2ccccc2C12COc1cc3c(cc12)OCO3 (centres unmarked)

Key:
1. 117 to 119 °C
2. 107 to 110 °C
3. 160 to 165 °C

----------
Please respond with reported pIC50 for every item in the list.
Test system: sodium channel
Assay: Guanidine influx assay (14C-guanidine radiotracer flux) in a known cell line that expresses a sodium channel
Format: cell-based, human or rat
pIC50: −log10 of the molar value.

{"compound": "O=C(O)c1cccc(CN2C(=O)C3(COc4cc5c(cc43)OCO5)c3ccccc32)c1 (centres unmarked) [Example 8]", "measured value": "6.00 to 7.00"}
{"compound": "CCCCCN1C(=O)C2(COc3cc(-c4cccnc4)ccc32)c2ccccc21 (centres unmarked) [Example 37]", "measured value": "< 6.00"}
{"compound": "O=C(Nc1cccc(F)c1)c1ccc(CN2C(=O)C3(COc4cc5c(cc43)OCO5)c3ccccc32)cc1 (centres unmarked) [Example 12]", "measured value": "6.00 to 7.00"}
{"compound": "O=C(NCCCN1C(=O)C2(COc3cc4c(cc32)OCO4)c2ccccc21)c1sccc1Cl (centres unmarked) [Example 17]", "measured value": "7.00 to 8.00"}
{"compound": "CCCCCN1C(=O)C2(CC(=O)c3cc4c(cc32)OCO4)c2ccccc21 (centres unmarked) [Example 21]", "measured value": "8.00 to 9.00"}
{"compound": "CCCCCN1C(=O)C2(COc3cc(N4CCOCC4)ccc32)c2ccccc21 (centres unmarked) [Example 34]", "measured value": "< 6.00"}
{"compound": "CCCCCN1C(=O)C2(COc3cc4c(cc32)OCO4)c2c(C#N)cccc21 (centres unmarked) [Example 30]", "measured value": "7.00 to 8.00"}

Exercise: Which pIC50 value is on record for O=C1N(CCC2CC2)c2ccccc2C12COc1cc3c(cc12)OCO3 (centres unmarked) [Example 1] ?
Key: 8.00 to 9.00

Where these numbers come from: patent US8466188B2
